Ref: patent US20220315621A1

target system: GABAA receptor (rat brain cortical membranes, [35S]-TBPS binding)
measurement context: Table I-6; rat brain cortical membranes, 3 nM [35S]-TBPS, in the presence of 5 mM GABA
Measured IC50 values are reported for all entries that follow.

Answered cases to consult:
1) C[C@@]1(O)CC[C@H]2[C@H](CC[C@@H]3[C@@H]2CC[C@]2(C)C[C@@H](C(=O)Nc4ccccc4)CCC[C@@H]32)C1 = 1000 to 10000 nM
2) CC(=O)[C@H]1CCC[C@H]2[C@@H]3CC[C@@H]4C[C@](C)(O)CC[C@@H]4[C@H]3CC[C@]2(C)C1 [I-BC14a] = 100 to 1000 nM
3) C[C@@]1(O)CC[C@H]2[C@H](CC[C@@H]3[C@@H]2CC[C@]2(C)[C@H](C(=O)Nc4ccccc4)CCCC[C@@H]32)C1 [I-BA17a] = 100 to 1000 nM
4) C[C@@]1(O)CC[C@H]2[C@H](CC[C@@H]3[C@@H]2CC[C@]2(C)[C@H](O)CCCC[C@@H]32)C1 = 1000 to 10000 nM

Now let's try a different one.
// returns IC50 for COC[C@@H]1CCCC[C@H]2[C@@H]3CC[C@@H]4C[C@](C)(O)CC[C@@H]4[C@H]3CC[C@]12C with GABAA receptor (rat brain cortical membranes, [35S]-TBPS binding); value = 1000 to 10000 nM
